Can you tell me inhibition at 0.1 µM for the items I'm about to list?
- assayed_target: UniProt:P28845
- Sequence (P28845 whole entry, species assumed): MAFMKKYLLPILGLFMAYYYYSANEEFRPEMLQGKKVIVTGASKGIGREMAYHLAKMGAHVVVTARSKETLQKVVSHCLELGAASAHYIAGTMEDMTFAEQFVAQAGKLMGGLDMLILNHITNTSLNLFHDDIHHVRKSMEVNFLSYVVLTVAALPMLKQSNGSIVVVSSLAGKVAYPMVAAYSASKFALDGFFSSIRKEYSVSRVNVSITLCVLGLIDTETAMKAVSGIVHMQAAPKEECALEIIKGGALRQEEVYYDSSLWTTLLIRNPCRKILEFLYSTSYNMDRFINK
- procedure_details: 11β-hsd-1 enzyme assay, percentage of inhibition (3H-cortisone to cortisol, radio-HPLC)
- Assay type: biochemical
- conditions: 0.1 uM; read-out: % inh @ 0.1 uM
Respond numerically; units are % and should not be typed.

Field request: inhibition at 0.1 µM | item: Cc1cccc(NS(=O)(=O)Cc2ccc(Cl)c(Cl)c2)n1 28.9

Which inhibition at 0.1 µM value is on record for Cc1cccc(NS(=O)(=O)/C=C/c2ccccc2)n1 ? 57.2

What value of inhibition at 0.1 µM has been reported for the following compound? Cc1cccc(NS(=O)(=O)c2ccc(-c3cc(Cl)cc(Cl)c3)cc2)n1 100

Requested read-out: inhibition at 0.1 µM. Entry: Cc1cccc(NS(=O)(=O)c2ccc(-c3cccc(C#N)c3)cc2)n1 61.7

Form field: reported inhibition at 0.1 µM of CCc1cccc(NS(=O)(=O)c2ccc(C(F)(F)F)cc2)n1 66

State the recorded inhibition at 0.1 µM for this entry: Nc1cccc(NS(=O)(=O)c2ccc(-c3ccc(Cl)cc3)cc2)n1 96

Entry N#Cc1ccc(-c2ccc(S(=O)(=O)Nc3cccc(C4CC4)n3)cc2)cc1 : reported inhibition at 0.1 µM = ? 100
